Data origin: paper PMC7826789

Tested on: MKNK1;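 also: KINOMEscan scanMAX binding as percent activity remaining versus control; lower means stronger binding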
run parameters: Compound Concentration (nM):1000
measured parameter: Percent Control (%)

[
  {
    "molecule": "CCS(=O)(=O)c1ccc(OC)c(Nc2ncc(-c3cccc(F)c3)o2)c1 [GW621970X]",
    "measured parameter": "Percent Control",
    "display unit": "%",
    "numeric result": 70
  },
  {
    "molecule": "Cc1cc(O)cc(C)c1/C=C/c1cncc(C(N)=O)c1 [GW435821X]",
    "measured parameter": "Percent Control",
    "display unit": "%",
    "numeric result": 69
  },
  {
    "molecule": "Cl.O=C(Nc1ccc(Oc2ccc3[nH]c(NC(=O)c4ccco4)nc3c2)cc1)Nc1cc(C(F)(F)F)ccc1F [GW683134A]",
    "measured parameter": "Percent Control",
    "display unit": "%",
    "numeric result": 48
  },
  {
    "molecule": "Cl.O=C(O[C@H]1CN[C@H](C#Cc2cc3ncnc(Nc4ccc5c(cnn5Cc5ccccc5)c4)c3s2)C1)N1CCOCC1 [GSK200398A]",
    "measured parameter": "Percent Control",
    "display unit": "%",
    "numeric result": 70
  },
  {
    "molecule": "COc1cccc(-c2c[nH]c3c(N/N=C/c4ccncc4)ncnc23)c1 [GW814408X]",
    "measured parameter": "Percent Control",
    "display unit": "%",
    "numeric result": 57
  },
  {
    "molecule": "NS(=O)(=O)c1ccc(N/N=C2\\C(=O)Nc3ccc(C(=O)NCCc4c[nH]cn4)cc32)cc1 [GW300660X]",
    "measured parameter": "Percent Control",
    "display unit": "%",
    "numeric result": 100
  },
  {
    "molecule": "C[C@@H](Oc1cc(-n2cnc3ccc(OC4CCN(C)CC4)cc32)sc1C(N)=O)c1ccccc1Cl [GSK579289A]",
    "measured parameter": "Percent Control",
    "display unit": "%",
    "numeric result": 71
  },
  {
    "molecule": "O=C1Nc2ccc(C(=O)c3ccco3)cc2C1=Cc1cc(Cl)c(O)c(Cl)c1 [GW406108X]",
    "measured parameter": "Percent Control",
    "display unit": "%",
    "numeric result": 72
  },
  {
    "molecule": "COc1cc2ncn(-c3cc(O[C@H](C)c4ccccc4Cl)c(C(N)=O)s3)c2cc1OC [GSK237701A]",
    "measured parameter": "Percent Control",
    "display unit": "%",
    "numeric result": 73
  }
]
